System: Crude diglycosidase
testSummary: Examination of pH in the conversion into isoflavone aglycons by diglycosidase using soybean materials
Assay type: biochemical, Penicillium multicolor IAM7153
cond: pH3.4; heat treatment of enzyme: no; reaction time 1 h
Experimental: A substrate solution of 450 μL was prepared by suspending 50 mg of each soybean material (roasted soy flour (manufactured by Fuji Shokuryo K.K.), soymilk (manufactured by Gitoh Shokuhin K.K.), defatted soybean (manufactured by Fuji Seiyu K.K.), concentrated soybean protein (manufactured by Fuji Seiyu K.K.)), and adjusting the pH to 2 to 11 with hydrochloric acid or sodium hydroxide. […]
measuredProperty: Decomposition efficiency of glycitin family in defatted soybean

# structureSmiles, experimentalResult
measured = [
    ("COc1cc2c(=O)c(-c3ccc(O)cc3)coc2cc1O", "not detected"),
    ("COc1cc2c(=O)c(-c3ccc(O)cc3)coc2cc1O[C@@H]1O[C@H](COC(=O)CC(=O)O)[C@@H](O)[C@H](O)[C@H]1O", "100.0%"),
    ("COc1cc2c(=O)c(-c3ccc(O)cc3)coc2cc1O[C@@H]1O[C@H](COC(C)=O)[C@@H](O)[C@H](O)[C@H]1O", "not detected"),
    ("COc1cc2c(=O)c(-c3ccc(O)cc3)coc2cc1O[C@@H]1O[C@H](CO)[C@@H](O)[C@H](O)[C@H]1O", "not detected"),
]

---

Tested on: Crude diglycosidase
testSummary: Examination of temperature in the conversion into isoflavone aglycons by diglycosidase using soybean materials
Format: biochemical, Penicillium multicolor IAM7153
cond: 65 °C; heat treatment of enzyme: no; 0 h
measuredProperty: Decomposition efficiency of glycitin family in concentrated soybean protein

I'd like to know its Decomposition efficiency of glycitin family in concentrated soybean protein. The molecule in question is COc1cc2c(=O)c(-c3ccc(O)cc3)coc2cc1O[C@@H]1O[C@H](CO)[C@@H](O)[C@H](O)[C@H]1O [glycitin] 52.2%

Now consider COc1cc2c(=O)c(-c3ccc(O)cc3)coc2cc1O[C@@H]1O[C@H](COC(=O)CC(=O)O)[C@@H](O)[C@H](O)[C@H]1O [malonylglycitin, 6″-O-malonylglycitin] and answer again. 0.4%

Now consider COc1cc2c(=O)c(-c3ccc(O)cc3)coc2cc1O[C@@H]1O[C@H](COC(C)=O)[C@@H](O)[C@H](O)[C@H]1O [acetylglycitin, 6″-O-acetylglycitin] and answer again. 36.0%

Now consider COc1cc2c(=O)c(-c3ccc(O)cc3)coc2cc1O [glycitein] and answer again. 11.4%

---

System: Crude diglycosidase
testSummary: Examination of pH in the conversion into isoflavone aglycons by diglycosidase using soybean materials
Format: biochemical, Penicillium multicolor IAM7153
cond: pH6.2; heat treatment of enzyme: no; reaction time 3 h
measuredProperty: Decomposition efficiency of daidzin family in soymilk (%)
Note: unit % is implicit; provide only the numeric part.

I'd like to know its Decomposition efficiency of daidzin family in soymilk. The compound in question is O=c1c(-c2ccc(O)cc2)coc2cc(O)ccc12 53.6

Now consider O=C(O)CC(=O)OC[C@H]1O[C@@H](Oc2ccc3c(=O)c(-c4ccc(O)cc4)coc3c2)[C@H](O)[C@@H](O)[C@@H]1O and answer again. 46.4

---

Please respond with reported Decomposition efficiency of daidzin family in roasted soy flour for every item in the list.
Tested on: Crude diglycosidase
testSummary: Examination of pH in the conversion into isoflavone aglycons by diglycosidase using soybean materials
Type: biochemical, Penicillium multicolor IAM7153
cond: pH5, heat treatment of enzyme yes, reaction time 6 h, 55° C.
Give the figure by itself; no unit, no explanation.

I'd like to know its Decomposition efficiency of daidzin family in roasted soy flour. The molecule in question is O=c1c(-c2ccc(O)cc2)coc2cc(O[C@@H]3O[C@H](CO)[C@@H](O)[C@H](O)[C@H]3O)ccc12 50.6

Now consider O=c1c(-c2ccc(O)cc2)coc2cc(O)ccc12 and answer again. 4.4

Now consider CC(=O)OC[C@H]1O[C@@H](Oc2ccc3c(=O)c(-c4ccc(O)cc4)coc3c2)[C@H](O)[C@@H](O)[C@@H]1O and answer again. 45.0

---

Please respond with reported Decomposition efficiency of daidzin family in soymilk for every item in the list.
System: Crude diglycosidase
testSummary: Examination of pH in the conversion into isoflavone aglycons by diglycosidase using soybean materials
Format: biochemical, Penicillium multicolor IAM7153
cond: pH2.3; heat treatment of enzyme: no; reaction time 3 h
Note: unit % is implicit; provide only the numeric part.

I'd like to know its Decomposition efficiency of daidzin family in soymilk. The compound in question is O=c1c(-c2ccc(O)cc2)coc2cc(O)ccc12 48.9

Now consider O=C(O)CC(=O)OC[C@H]1O[C@@H](Oc2ccc3c(=O)c(-c4ccc(O)cc4)coc3c2)[C@H](O)[C@@H](O)[C@@H]1O and answer again. 51.1

---

Tested on: Crude diglycosidase
testSummary: Examination of temperature in the conversion into isoflavone aglycons by diglycosidase using soybean materials
Format: biochemical, Penicillium multicolor IAM7153
cond: 35 °C; heat treatment of enzyme: no; 0 h
measuredProperty: Decomposition efficiency of daidzin family in roasted soy flour (%)
Note: unit % is implicit; provide only the numeric part.

I'd like to know its Decomposition efficiency of daidzin family in roasted soy flour. The compound in question is O=c1c(-c2ccc(O)cc2)coc2cc(O[C@@H]3O[C@H](CO)[C@@H](O)[C@H](O)[C@H]3O)ccc12 [daidzin] 48.6

Now consider O=c1c(-c2ccc(O)cc2)coc2cc(O)ccc12 [daidzein] and answer again. 3.6

Now consider CC(=O)OC[C@H]1O[C@@H](Oc2ccc3c(=O)c(-c4ccc(O)cc4)coc3c2)[C@H](O)[C@@H](O)[C@@H]1O [acetyldaidzin, 6″-O-acetyldaidzin] and answer again. 47.8

---

Please respond with reported Decomposition efficiency of genistin family in defatted soybean for every item in the list.
Test system: Crude diglycosidase
testSummary: Examination of pH in the conversion into isoflavone aglycons by diglycosidase using soybean materials
Type: biochemical, Penicillium multicolor IAM7153
Design: concentration or dose not given beside the values
cond: pH3.4; heat treatment of enzyme: no; reaction time 1 h

I'd like to know its Decomposition efficiency of genistin family in defatted soybean. The molecule in question is CC(=O)OC[C@H]1O[C@@H](Oc2cc(O)c3c(=O)c(-c4ccc(O)cc4)coc3c2)[C@H](O)[C@@H](O)[C@@H]1O 1.5%

Now consider O=c1c(-c2ccc(O)cc2)coc2cc(O)cc(O)c12 and answer again. 56.9%

Now consider O=C(O)CC(=O)OC[C@H]1O[C@@H](Oc2cc(O)c3c(=O)c(-c4ccc(O)cc4)coc3c2)[C@H](O)[C@@H](O)[C@@H]1O and answer again. 41.6%

---

Please respond with reported Decomposition efficiency of glycitin family in roasted soy flour for every item in the list.
Tested on: Crude diglycosidase
testSummary: Examination of temperature in the conversion into isoflavone aglycons by diglycosidase using soybean materials
Type: biochemical, Penicillium multicolor IAM7153
Parameters: concentration or dose not given beside the values
cond: 80 °C; heat treatment of enzyme: no; 0 h

I'd like to know its Decomposition efficiency of glycitin family in roasted soy flour. The compound in question is COc1cc2c(=O)c(-c3ccc(O)cc3)coc2cc1O[C@@H]1O[C@H](COC(C)=O)[C@@H](O)[C@H](O)[C@H]1O 38.3%

Now consider COc1cc2c(=O)c(-c3ccc(O)cc3)coc2cc1O[C@@H]1O[C@H](CO)[C@@H](O)[C@H](O)[C@H]1O and answer again. 51.3%

Now consider COc1cc2c(=O)c(-c3ccc(O)cc3)coc2cc1O and answer again. 10.4%

---

Test system: Crude diglycosidase
testSummary: Examination of pH in the conversion into isoflavone aglycons by diglycosidase using soybean materials
Format: biochemical, Penicillium multicolor IAM7153
cond: pH7.8; heat treatment of enzyme: no; reaction time 6 h
measuredProperty: Decomposition efficiency of glycitin family in defatted soybean (%)
Note: unit % is implicit; provide only the numeric part.

I'd like to know its Decomposition efficiency of glycitin family in defatted soybean. The compound in question is COc1cc2c(=O)c(-c3ccc(O)cc3)coc2cc1O[C@@H]1O[C@H](COC(=O)CC(=O)O)[C@@H](O)[C@H](O)[C@H]1O [malonylglycitin, 6″-O-malonylglycitin] 49.1

Now consider COc1cc2c(=O)c(-c3ccc(O)cc3)coc2cc1O [glycitein] and answer again. 50.9

---

Test system: Crude diglycosidase
testSummary: Examination of pH in the conversion into isoflavone aglycons by diglycosidase using soybean materials
Format: biochemical, Penicillium multicolor IAM7153
cond: pH3.7; heat treatment of enzyme: no; reaction time 6 h
measuredProperty: Decomposition efficiency of daidzin family in concentrated soybean protein (%)
Note: unit % is implicit; provide only the numeric part.

I'd like to know its Decomposition efficiency of daidzin family in concentrated soybean protein. The compound in question is O=c1c(-c2ccc(O)cc2)coc2cc(O)ccc12 [daidzein] 74.8

Now consider CC(=O)OC[C@H]1O[C@@H](Oc2ccc3c(=O)c(-c4ccc(O)cc4)coc3c2)[C@H](O)[C@@H](O)[C@@H]1O [acetyldaidzin, 6″-O-acetyldaidzin] and answer again. 25.2

All values here come from patent US7118895B2.
